MEASURED ENDPOINT: melting point

COMPOUND	melting point
CNc1cc(N2CCN(C(=O)C3CCN(S(=O)(=O)c4ccc(C(F)(F)F)cc4)CC3)CC2)ncn1	237 to 238 °C

Notebook: O=C(O)COc1ccc(C(O)c2cccs2)c(Cl)c1Cl (stereo unspecified) , melting point read as 163 °C

For record Nc1cc2c(cc1[N+](=O)[O-])[nH]c(=O)c(=O)n2C1CCCCC1 the listed melting point is > 260 °C

Please fill in: melting point reported for O=C(CCl)Nc1ccc2c(c1NC(=O)c1ccccc1)C(=O)c1ccccc1C2=O = 203 to 204 °C

Briefly, melting point measured for OC(COCCCl)c1ccc2cc(OCc3ccccc3)ccc2c1 (stereo unspecified) : 86 to 87.5 °C

Measured melting point, COCc1ccc(/C=C/c2c(OC)cc3c(c2OC)C(C)(C)CCC3(C)C)cc1 : 66 to 68 °C

Value of measured melting point for the entry CCCn1c(COCC)nc2c(N)nc3ccc(OC4CCNCC4)cc3c21 : 176 to 178 °C

So for COc1cc(N)c(Cl)cc1-c1nn(C2CCN(CC3CCCCC3)CC2)c(=O)o1 , the logged melting point turned out to be 186 to 187 °C

melting point reported for this compound CN1C(=O)O[C@@H](c2ccc(F)cc2)[C@H]1Cc1ccc(C(F)(F)F)cc1 (racemic) : 77 to 78 °C

Reported melting point for N#Cc1ccc(OCC(O)CCCl)cc1 (stereo unspecified) was 78 to 80 °C

Briefly, melting point measured for CCCc1nc(N)nc(O)c1I : 233 to 234 °C

# compound CS(=O)(=O)c1ccc(Br)cc1[N+](=O)[O-] ; its melting point = 175 to 177 °C
